# protocolDetails: Ratio of drug metabolism in Lewis rat blood assessed as phosphate ester metabolite to parent drug at 2 mg/kg, po measured at 24 hrs by LC-MS/MS analysis
# Type: ADME, organism-based
# conditionContext: in vivo
metricName: Ratio
Answer using only a numeral; do not append any unit.

Answered cases to consult:
compound: COc1cccc(CC2CCc3cc([C@H]4CC[C@](N)(CO)C4)ccc3C2)c1 (stereo in doubt; 12a)
metricName: Ratio
obsValue: 1

compound: COc1ccc(CC[C@@H]2CCc3cc([C@H]4CC[C@](N)(CO)C4)ccc3C2)cc1
metricName: Ratio
obsValue: 0.4

compound: COc1cccc(CC[C@H]2CCc3cc([C@H]4CC[C@](N)(CO)C4)ccc3C2)c1
metricName: Ratio
obsValue: 1.1

compound: COc1ccccc1CC[C@H]1CCc2cc([C@H]3CC[C@](N)(CO)C3)ccc2C1
metricName: Ratio
obsValue: 1

compound: COc1ccccc1CC[C@@H]1CCc2cc([C@H]3CC[C@](N)(CO)C3)ccc2C1
metricName: Ratio
obsValue: 5

compound: COc1ccc(CC[C@H]2CCc3cc([C@H]4CC[C@](N)(CO)C4)ccc3C2)cc1
metricName: Ratio
obsValue: 0.75

compound: N[C@]1(CO)CC[C@H](c2ccc3c(c2)CC[C@@H](CCc2ccccc2)C3)C1
metricName: Ratio
obsValue: 6

compound: COc1cccc(CC[C@@H]2CCc3cc([C@H]4CC[C@](N)(CO)C4)ccc3C2)c1
metricName: Ratio
obsValue: 6.3

compound: COc1ccc(CC2CCc3cc([C@H]4CC[C@](N)(CO)C4)ccc3C2)cc1 (stereo in doubt; 13b)
metricName: Ratio
obsValue: 1.3

Query compound follows.
Given the compound "N[C@]1(CO)CC[C@H](c2ccc3c(c2)CC[C@H](CCc2ccccc2)C3)C1" , write its reported Ratio.
1.2

* * *

concentration at 24 h listing for selected compounds.
# protocolDetails: Drug metabolism in Balb/c mouse blood assessed as concentration of parent compound at 1 mg/kg, po measured at 24 hrs by LC-MS/MS analysis
# Type: ADME, organism-based
# conditionContext: Balb/c, blood, read-out: Ct
The reply should consist of the numeric value with the unit placed after it.

Answered cases to consult:
compound: N[C@]1(CO)CC[C@H](c2ccc3c(c2)CC[C@@H](CCc2ccccc2)C3)C1
concentration at 24 h: 12 nM

compound: N[C@]1(CO)CC[C@H](c2ccc3c(c2)CC[C@@H](Cc2ccccc2)C3)C1
concentration at 24 h: 5.6 nM

compound: N[C@]1(CO)CC[C@H](c2ccc3c(c2)CCC(c2ccccc2)C3)C1 (stereo in doubt; 8a)
concentration at 24 h: 27 nM

Query compound follows.
Given the compound "N[C@]1(CO)CC[C@H](c2ccc3c(c2)CC[C@H](Cc2ccccc2)C3)C1" , write its reported concentration at 24 h.
9 nM

* * *

# protocolDetails: Drug metabolism in Balb/c mouse blood assessed as concentration of parent compound at 50 mg/kg, po measured at 4 hrs by LC-MS/MS analysis
# Type: ADME, organism-based
# conditionContext: read-out: Ct
concentration at 4 h listing for selected compounds.
The reply should consist of the numeric value with the unit placed after it.

lineNotation: N[C@]1(CO)CC[C@H](c2ccc3c(c2)CC[C@H](Cc2ccccc2)C3)C1
concentration at 4 h: 1800 nM

Query compound follows.
Given the compound "N[C@]1(CO)CC[C@H](c2ccc3c(c2)CC[C@@H](Cc2ccccc2)C3)C1" , write its reported concentration at 4 h.
2400 nM
